Hello, the source for this data is a melting point compilation (Tetko et al.; mined from patent text by program, amines drawn as free bases though some values may be those of a salt), in case you need it.

Provide the recorded melting point for the entries that follow.

Can you share its melting point? I mean this compound: CCC(CC)Nc1c([N+](=O)[O-])cc(C(C)C)c(CSC#N)c1[N+](=O)[O-] 68 to 70 °C

Given CCc1cccc2c1OC(C(F)(F)F)C(C(=O)O)=C2 (stereo unspecified) , state its recorded melting point. 185 to 187 °C

Quick one: melting point of CC(CC(C)(C)OOC(=O)NC1CCCCC1)OC(=O)NC1CCCCC1 (stereo unspecified) ? 224 to 226 °C

Given the compound NC(=O)c1n[nH]c(-c2ccc(Cl)cc2)c1-c1ccc(S(N)(=O)=O)cc1 , what is its reported melting point? 108 to 110 °C

So what's the measured melting point for this one? CCNC(c1ccccc1)(c1ccccc1)c1ccccc1 75 to 77 °C

Reported melting point for O=C(Nc1ccccc1)C1=C(N2CCCC2)COC1=O : what is it? 200 to 201 °C

Any idea what its melting point is? The compound is Cc1cc(N2CCCCCC2)c2ccc(NCc3ccc(C(F)(F)F)cc3)cc2n1 90 to 93 °C

Which melting point value belongs to CCCCCCCCCCCCCCCCSCC(CO)n1nnnc1C (stereo unspecified) ? 77 to 78 °C

Sample CCOCCN(CCOCC)C(=O)c1n[nH]c2c(=O)[nH]c3cc(Cl)ccc3c(=O)c12 — what was its melting point? 202 °C

Quick one: melting point of N#CC(c1ccc(Cl)cc1)c1ccc(-n2ncc(=O)[nH]c2=O)cc1 (stereo unspecified) ? 206 °C

Quick check: melting point of Cc1c(C)c2c(c(C)c1N)C(O)(c1ccc3ccccc3c1)C(C)(C)O2 (stereo unspecified) ? 121 to 122 °C

----------
measuredProperty: melting point

Name the reported melting point value associated with the compound NC(=O)c1cc2[nH]c3ccccc3c(=O)n2n1 315 to 325 °C

Which melting point is listed for O=C(c1ccccc1)[C@@]1([N+](=O)[O-])[C@@H]2C=C[C@@H](C2)[C@H]1c1ccccc1 (relative stereo) ? 119 to 120 °C

Reported melting point for CCC(C)C(=O)c1nc(C)nc2c1c(C)c(C)n2-c1c(C)cc(C)cc1C (stereo not drawn) : what is it? 133 to 135 °C

// melting point lookup, key: CC(CC1=C(c2ccc(O)cc2)CCCNC1=O)N1CCCCC1 (stereo not drawn) 178 to 181 °C

Sample CC(C)(C)OC(=O)N(C(=O)OC(C)(C)C)c1c(C#CBr)c(C#N)nn1-c1c(Cl)cc(C(F)(F)F)cc1Cl — what was its melting point? 130 to 131 °C

Query (compound): O=C(NC1CCN(CCOC(=O)c2ccccc2)CC1)c1ccccc1 ; field requested: melting point 139 to 140 °C

I'd like to know its melting point. The compound in question is CCOC(=O)c1cc2c(C(F)(F)F)ccc3c2n1CCN3C 91 to 92 °C

For O=C(O)/C=C/c1cc(F)c2ncc(C(=O)NCc3ccc(Cl)cc3)c(O)c2c1 , what is its reported melting point? 296 to 298 °C

Quick one: melting point for O=c1oc(-c2cccc(Cl)c2)cc(O)c1SCCCCc1ccccc1 ? 123 to 124 °C

What measured melting point goes with CCSc1cn(-c2ccccn2)c2c1C(=O)CC(C)(C)C2 ? 158 to 159 °C

I'd like to know its melting point. The compound in question is O=C(O)C1CCc2c(c3ccccc3n2C(=O)c2ccc(Cl)cc2)C1 (stereo not drawn) 210 to 211 °C

State the recorded melting point for this entry: Cc1ccccc1C(=O)c1[nH]c2cc(Cl)ccc2c1CC(=O)O 150 to 152 °C

Which melting point value belongs to CC(Cn1nnc2ccccc21)(NC(=O)OC1C2CC3CC(C2)CC1C3)C(=O)NCCc1ccccc1 (stereo not drawn) ? 180 to 185 °C

----------
measuredProperty: melting point

Param item = O=C(Nc1ccc2[nH]cnc2c1)C(=O)N1CCC(Cc2ccc(F)cc2)CC1 ; retrieve measured melting point. 104 to 110 °C

Which value of melting point has been reported for NC(=S)CCn1nc(-c2ccccc2)ccc1=O in the records? 173 to 175 °C

For the compound CCN1CCN(c2cc(-c3ccc(O)cc3)c3c(n2)CCCCCC3)CC1 , what melting point is on record? 250 to 253 °C

Name the reported melting point value associated with the compound C1=NCC2=C3C(=C1)CCCC3CCC2 (stereo not drawn) 207 to 209 °C

I have this compound here, CCC=C1SC(=S)N(CC(=O)O)C1=O , and I need its recorded melting point. 138 to 140 °C

Need melting point of Clc1cnc(N2CCNCC2)c(Cl)n1 , thanks. 89 to 97 °C

melting point for CN1C(=O)CN=C(C2CCCCC2)c2ccccc21 ? 98 to 100 °C

Name the recorded melting point for CCCCN(CCCC)C(=O)/C=C/c1ccc(Cn2c(-c3ccc(O)cc3)c(C)c3cc(O)ccc32)cc1 . 126 to 128 °C

----------
measuredProperty: melting point

Sample O=C(c1ccc(Nc2ccnc3cc(C(F)(F)F)ccc23)cc1)N1CCC(O)(c2cccc(C(F)(F)F)c2)CC1 — what was its melting point? 278 to 279 °C

For the molecule CCOC(=O)c1nc2ccc(N)cc2[nH]1 , what melting point is on record? 147 to 149 °C

melting point lookup needed for CN(C)C=C(C#N)C(=O)NCc1ccccc1 , thanks. 160 to 161 °C

Using the record for CNCc1ccsc1CC(=O)O , report its melting point. 181 to 182 °C

Look up melting point for this molecule: COc1ccc(-n2nc(Sc3cc(C)cc(C)c3)c(C)c(C#N)c2=O)cc1 175 to 177 °C

Would you mind telling me what melting point value was observed for O=C(O)Cc1cccc(C=C(C(=O)O)c2nc(-c3ccccc3)c(-c3ccccc3)o2)c1 ? 178 to 182 °C

Report melting point for CC(C)S(=O)(=O)Oc1cn(C)c2cc(F)ccc2c1=O please. 130 to 133 °C

----------
Can you tell me melting point for the items I'm about to list?

I would be grateful if you could share the reported melting point for CCCCN(CCCC(=O)O)C(=O)c1ccccc1 . 62 to 64 °C

// query melting point value for entry Nc1nc(N)nc(C2CC3CCC2C3)n1 (stereo not given) 216 to 217 °C

Would you kindly share the measured melting point for CC(C)(CNC(=O)CCCC(=O)O)SN=O ? 104 to 107 °C

Could you share which melting point value was measured for COc1cc(OC)cc(-c2nc3ccc(Nc4ccncc4)cc3c(=O)[nH]2)c1 ? 289 to 290 °C

What does the record list as melting point for Cn1ccnc1S(=O)(=O)c1ccc(Cl)cc1 ? 164 to 166 °C

Return reported melting point; argument: CCc1[nH]c(=O)[nH]c1C(O)c1ccncc1 (stereo not given) 234 to 236 °C

Looking for the measured melting point of COc1ccc2sc(C(N)=O)c(Sc3ccccc3)c2c1 , can you help? 194 to 196 °C

Look up melting point for this molecule: Cc1ccc2c(Cl)cc(S(=O)(=O)NCCc3ccc(N)cc3)c(O)c2n1 249 to 253 °C

What value of melting point has been reported for the following molecule? O=C(N=c1sc2cc(OC(F)(F)F)ccc2n1CCO)C(F)(F)F 144 °C

Returns the measured melting point for the input molecule. Input: O=c1c2[nH]c(N(S(=O)(=O)c3ccccc3)S(=O)(=O)c3ccccc3)nc2n(CC2CC2)c(=O)n1CC1CC1 238 °C

What value of melting point has been reported for the following molecule? CS(=O)(=O)c1ccc(-n2nc(C(F)F)cc2-c2nc3cccc(F)c3s2)cc1 193 to 195 °C

Return reported melting point; argument: N#Cc1ccccc1C=C1c2ccccc2CCc2ccccc21 185 °C

Returns the measured melting point for the input molecule. Input: CO[C@]1(c2csc(Sc3ccc(/C(C)=N/O)cc3)c2)CCO[C@@H]1C (racemic) 89 to 90 °C

Name the reported melting point value associated with the molecule O=S1NC(Cc2ccc3c(c2)OCO3)=NO1 (stereo not given) 132 to 133 °C

Entry under review: CC(C)COC(=O)[C@H](CC(=O)OCc1ccccc1)NC(=O)CCCCNC(=O)OC(C)(C)C . Reported melting point? 64 to 66 °C

----------
What melting point was measured for each of the following?

Requested read-out: melting point. Entry: N#CCCNN=Cc1ccc(C=NNCCC#N)cc1 111 to 113 °C

Which value of melting point has been reported for CC1(C)OC(=O)C(Oc2ccc(Br)cc2)=C1c1ccc(S(C)(=O)=O)cc1 in the records? 150 to 152 °C

Would you kindly share the measured melting point for CC(=O)Nc1cc(C(=O)c2ccc(S(=O)(=O)CCO)c(NC(C)=O)c2)ccc1S(=O)(=O)CCO ? 189 to 192 °C

Given CC(=O)N1CCc2c1cc(C)c(S(=O)(=O)C[N+](=O)[O-])c2C , state its recorded melting point. 204 °C

State the recorded melting point for this entry: CC(C)(C)OC(=O)CN1CC(c2ccsc2)SCC(N)C1=O (stereo not given) 115 to 117 °C

// lookup melting point for CC(C)CCC(O)C(C)C1CC=C2C3=C(CCC21C)C1(C)CCC(OC(=O)c2ccccc2)C(C)(C)C1CC3 (stereo not given) 142 to 143 °C

For Cn1cc(-c2cncc(OC3SCC(O)C(O)C3O)c2)c(C(F)(F)F)n1 (stereo not given) , what is its reported melting point? 210 °C

Request the reported melting point associated with CCCCOc1ccc2nc(C(C)=O)c(O)cc2c1 71 to 73 °C

I am curious: what melting point value has been reported for CCOC(=O)N1CCC(n2c(=O)[nH]c3cc(Cl)ccc32)CC1 ? 160 °C

Param item = CCCCCC(=O)Nc1nc2c(ncn2CCC(CO)CO)c(=O)[nH]1 ; retrieve measured melting point. 86 to 88 °C

Requested field: melting point. Item: CCc1cc(O)cc2c3c([nH]c12)C(CC)(CC(=O)OC)OCC3 (stereo not given) 153 to 154 °C

Quick one: melting point for Nc1nc2c(ncn2COCC=O)c(=O)[nH]1 ? 350 °C

Consider the compound CC(C)CCCC(C)C1CCC2C3CC=C4CC(OC(=O)C(C)(C)CO)CCC4(C)C3CCC12C (stereo not given) and give its measured melting point. 174 to 176 °C

Can you look up the measured melting point of CC(=O)OCc1cccc(-c2ccco2)c1C for me? 48.5 to 50 °C

What does the data say about its melting point? Entry: CCC(Oc1ccc2nc(NC(=O)NCCN3CCOCC3)sc2c1)c1c(Cl)cccc1Cl (stereo not given) 200 °C

I am curious: what melting point value has been reported for Nc1ccc(S(F)(F)(F)(F)F)cc1[N+](=O)[O-] ? 132 to 135 °C

Give its melting point value. Item: BrCC(=CSc1ccccc1Br)c1ccccc1 65 °C

Entry under review: CCO[C@@H](Cc1ccc2c(ccn2Cc2nc(-c3ccccc3OC)oc2C)c1)C(=O)O . Reported melting point? 59 to 60 °C

Requested field: melting point. Item: O=Cc1ccc(OCc2csc(-c3ccccc3)n2)cc1 86 to 90 °C

If you can, please state the reported melting point value of COc1ccc(/C=C/C2=CCN(Cc3c[nH]c4ncccc34)CC2)cc1 . 201 to 204 °C

Consider the compound CCCc1c(C(=O)NCc2ccc3cc(OCC(=O)O)ccc3c2)cnn1-c1ccc(Cl)cc1 and give its measured melting point. 203 to 204 °C

Reported melting point, compound OCc1cc(COc2ccc(Cl)cc2Cl)cc(OCc2ccccc2)c1 : ____ 85 to 88 °C

Given CC(C)(C)OC(=O)Nc1cc(N2CCC3(CC2)OCCO3)c(-c2ccccc2F)cc1[N+](=O)[O-] , state its recorded melting point. 164 °C

# get_value(readout='melting point', item= C=CCOC(=O)c1ccc(NC(=O)C(C(N)=O)c2ccc3c(c2)C(C)(C)CCC3(C)C)cc1 (stereo not given) ) 210 to 211 °C

Looking for the measured melting point of COc1ccc(COc2cc(Sc3c(Cl)cc(C=O)cc3Cl)ccc2OC)cn1 , can you help? 102 to 104 °C

Which melting point reading was recorded for the compound COC(=O)c1ccc(C(=O)Nc2cc3c4c(c2)CCCC4CCC3)s1 ? 221 to 222 °C

So what's the measured melting point for this one? COC(=O)C(Cc1cccc(OCC(=O)O)c1)c1nc(-c2ccccc2)c(-c2ccccc2)o1 (stereo not given) 122 to 127 °C

Fill in the blank: the reported melting point of CC(C)(SCc1ccccc1)[C@@H]1C[C@H](CSCc2ccccc2)C(=O)N1CC(=O)O (relative stereo) is ____. 117 to 118 °C

Which melting point is reported for this compound? CN1C(=O)c2ccccc2OC1(C)COc1ccc(N)cc1 (stereo not given) 162 to 164 °C

Which value of melting point has been reported for COc1cc(CCC(=O)Nc2cccc(C(=O)O)c2)ccc1O in the records? 218 to 220 °C
